These entries and their values trace back to paper PMC9482650.

target: FRMPD2_2, Q68DX3; assay: holdup assay; parameters: key: below the threshold = too weak to quantify, mostly under pKd 3.1 to 4; settings: plain residues with an end cap or a label only (N-terminal biotin on a linker: ado-ado)
Sequence (Q68DX3 944-1038): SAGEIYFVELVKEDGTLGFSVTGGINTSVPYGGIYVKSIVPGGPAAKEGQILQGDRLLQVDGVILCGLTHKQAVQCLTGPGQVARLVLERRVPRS
metric.name: pKd

INSERT INTO results (binder, metric_name, reported_measurement) VALUES
  ('PLATCDETSI [SEMA4F, O95754]', 'pKd', 3.53),
  ('EPAKETTTNV [SLC2A3, P11169]', 'pKd', 4.11),
  ('PLPPEEESWV [GAS2L2, Q8NHY3]', 'pKd', 6.16),
  ('PAALPESTHM [SLC9A3, P48764]', 'pKd', 'below the threshold'),
  ('NTALVESEDL [PALLS, Q8WX93;Q8WX93-1]', 'pKd', 'below the threshold'),
  ('TKEIPNCTSV [SORCS3, Q9UPU3]', 'pKd', 4.21),
  ('SKQFDKNAYV [CLDN10, P78369]', 'pKd', 'below the threshold'),
  ('HLSTRQGTCV [ATRNL1, Q5VV63]', 'pKd', 'below the threshold'),
  ('KAEEKPPSKV [SCN4B, Q8IWT1]', 'pKd', 'below the threshold'),
  ('QLKSGRDSTV [TMEM178A, Q8NBL3]', 'pKd', 'below the threshold'),
  ('HDDYFYHDEL [RCN2, Q14257]', 'pKd', 'below the threshold'),
  ('QRYPGNQTTC [CCL24, O00175]', 'pKd', 'below the threshold'),
  ('WAKEKQHTRL [SLC17A1, Q14916]', 'pKd', 'below the threshold'),
  ('PDSYHRRDFW [U2AF2, P26368]', 'pKd', 'below the threshold'),
  ('PALKNGQYWV [CSPG4, Q6UVK1]', 'pKd', 'below the threshold'),
  ('VYEVPVETKF [SLC26A3, P40879]', 'pKd', 'below the threshold'),
  ('KPDKQEEFYA [SDC3, O75056]', 'pKd', 'below the threshold'),
  ('IQISELETNV [SLC1A7, O00341]', 'pKd', 5.03);
